- System: PC-3
- assay summary: Antiproliferative activity against human PC3 cells
result type: pIC50
Just so you know, pIC50 here is -log10 of the concentration in molar units; reply with that number alone.

Specify measured pIC50 for "CC(C)(O)c1ccc(-c2cnc3[nH]c(=O)n(CC4CCCCC4)c3n2)cc1" . 5.86

Specify measured pIC50 for "O=c1[nH]c2ncc(-c3ccc(-c4nc[nH]n4)cc3)nc2n1CC1CCOCC1" . 5.86

Specify measured pIC50 for "O=c1[nH]c2ncc(-c3ccc4[nH]ncc4c3)nc2n1CC1CCCCC1" . 5.67

Specify measured pIC50 for "O=c1[nH]c2ncc(-c3ccc(-c4ncc[nH]4)cc3)nc2n1CC1CCOCC1" . 6.04

Specify measured pIC50 for "O=c1[nH]c2ncc(-c3ccc4[nH]cnc4c3)nc2n1CC1CCCCC1" . 5.94

====

Would you kindly list IC50 for each of these molecules?
- target: Serine/threonine-protein kinase mTOR (Homo sapiens, UniProt P42345)
- assay summary: Inhibition of mTOR
Write it as a number; the unit nM goes unstated.

Specify measured IC50 for "O=c1[nH]c2ncc(-c3ccc(O)cc3)nc2n1CC1CCCCC1" . 780

Specify measured IC50 for "CC(C)Cn1c(=O)[nH]c2ncc(-c3ccc(O)cc3)nc21" . 1020

Specify measured IC50 for "CC(C)n1c(=O)[nH]c2ncc(-c3ccc(O)cc3)nc21" . 1040

Specify measured IC50 for "O=c1[nH]c2ncc(-c3ccc4[nH]cnc4c3)nc2n1CC1CCCCC1" . 21

Specify measured IC50 for "CNc1nc2cc(-c3cnc4[nH]c(=O)n(CC5CCOCC5)c4n3)ccc2[nH]1" . 6

Specify measured IC50 for "CNC(=O)c1ccc(-c2cnc3[nH]c(=O)n(CC4CCCCC4)c3n2)cc1" . 120

Specify measured IC50 for "CC(C)(O)c1ccc(-c2cnc3[nH]c(=O)n(CC4CCCCC4)c3n2)cc1" . 30

Specify measured IC50 for "O=c1[nH]c2ncc(-c3ccc4cc[nH]c4c3)nc2n1CC1CCCCC1" . 3500

Specify measured IC50 for "CN1CCC(Cn2c(=O)[nH]c3ncc(-c4ccc(O)cc4)nc32)CC1" . 14100

Specify measured IC50 for "O=c1[nH]c2ncc(-c3ccc(-c4nc[nH]n4)cc3)nc2n1CC1CCCCC1" . 9

Specify measured IC50 for "NC(=O)c1ccc(-c2cnc3[nH]c(=O)n(CC4CCCCC4)c3n2)cc1" . 70

Specify measured IC50 for "O=c1[nH]c2ncc(-c3ccc(O)cc3)nc2n1C1CCOCC1" . 1670

Specify measured IC50 for "Nc1nc2cc(-c3cnc4[nH]c(=O)n(CC5CCOCC5)c4n3)ccc2[nH]1" . 10

Specify measured IC50 for "O=c1[nH]c2ncc(-c3ccc(O)cc3)nc2n1Cc1cccc(O)c1" . 1050

Specify measured IC50 for "O=C(O)c1ccc(-c2cnc3[nH]c(=O)n(CC4CCCCC4)c3n2)cc1" . 130

Specify measured IC50 for "NCc1ccc(-c2cnc3[nH]c(=O)n(CC4CCCCC4)c3n2)cc1" . 8300

Specify measured IC50 for "O=c1[nH]c2ncc(-c3ccc(-c4cn[nH]c4)cc3)nc2n1CC1CCCCC1" . 120

====

- target: Phosphatidylinositol 4,5-bisphosphate 3-kinase catalytic subunit alpha isoform (Homo sapiens)
- Sequence (P42336 whole entry, canonical isoform): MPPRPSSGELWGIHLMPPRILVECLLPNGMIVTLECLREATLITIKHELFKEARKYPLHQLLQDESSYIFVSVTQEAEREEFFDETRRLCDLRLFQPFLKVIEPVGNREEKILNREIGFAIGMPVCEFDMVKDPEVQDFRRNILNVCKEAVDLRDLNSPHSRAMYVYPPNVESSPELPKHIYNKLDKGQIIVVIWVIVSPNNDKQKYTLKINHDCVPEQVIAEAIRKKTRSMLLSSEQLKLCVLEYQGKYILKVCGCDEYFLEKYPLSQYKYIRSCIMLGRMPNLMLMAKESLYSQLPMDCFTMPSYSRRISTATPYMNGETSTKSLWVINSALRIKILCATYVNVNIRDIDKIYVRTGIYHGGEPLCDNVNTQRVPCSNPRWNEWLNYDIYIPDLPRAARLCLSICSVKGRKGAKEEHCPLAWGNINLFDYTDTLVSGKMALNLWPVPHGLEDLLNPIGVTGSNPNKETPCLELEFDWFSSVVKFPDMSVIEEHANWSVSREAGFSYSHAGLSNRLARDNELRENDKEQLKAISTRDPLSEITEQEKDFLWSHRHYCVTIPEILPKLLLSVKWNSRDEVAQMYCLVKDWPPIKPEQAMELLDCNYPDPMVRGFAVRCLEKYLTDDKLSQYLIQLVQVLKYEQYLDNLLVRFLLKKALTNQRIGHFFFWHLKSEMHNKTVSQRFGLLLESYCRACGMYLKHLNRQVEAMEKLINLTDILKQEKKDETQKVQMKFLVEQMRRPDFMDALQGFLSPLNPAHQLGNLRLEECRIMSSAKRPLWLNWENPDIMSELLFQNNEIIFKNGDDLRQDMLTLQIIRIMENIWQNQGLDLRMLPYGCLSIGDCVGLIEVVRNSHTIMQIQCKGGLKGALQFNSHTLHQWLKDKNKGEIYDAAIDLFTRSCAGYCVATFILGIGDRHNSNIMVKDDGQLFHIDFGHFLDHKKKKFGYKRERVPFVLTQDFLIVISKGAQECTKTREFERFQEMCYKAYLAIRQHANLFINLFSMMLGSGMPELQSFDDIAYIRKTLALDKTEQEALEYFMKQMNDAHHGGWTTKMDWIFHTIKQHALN
- assay summary: Inhibition of PI3Kalpha
Would you kindly list IC50 for each of these compounds?

Specify measured IC50 for "O=c1[nH]c2ncc(-c3ccc4[nH]ccc4c3)nc2n1CC1CCOCC1" . > 30 µM

Specify measured IC50 for "O=c1[nH]c2ncc(-c3ccc(-c4cn[nH]c4)cc3)nc2n1CC1CCCCC1" . > 30 µM

Specify measured IC50 for "O=c1[nH]c2ncc(-c3ccc4[nH]ccc4c3)nc2n1CC1CCCCC1" . > 30 µM

====

- Tested on: PC-3
- assay summary: Antiproliferative activity against human PC3 cells
result type: IC50

Specify measured IC50 for "CNc1nc2cc(-c3cnc4[nH]c(=O)n(CC5CCOCC5)c4n3)ccc2[nH]1" . > 5 µM

Specify measured IC50 for "NC(=O)[C@H]1CC[C@@H](n2c(=O)[nH]c3ncc(-c4ccc(O)cc4)nc32)CC1" . > 5 µM

Specify measured IC50 for "CO[C@H]1C[C@@H]2CC[C@@H](C)[C@@](O)(O2)C(=O)C(=O)N2CCCC[C@H]2C(=O)O[C@H]([C@H](C)C[C@@H]2CC[C@@H](O)[C@H](OC)C2)CC(=O)[C@H](C)/C=C(\C)[C@@H](O)[C@@H](OC)C(=O)[C@H](C)C[C@H](C)/C=C/C=C/C=C/1C" . < 0.01 µM

Specify measured IC50 for "NC(=O)[C@H]1CC[C@H](n2c(=O)[nH]c3ncc(-c4ccc(O)cc4)nc32)CC1" . > 5 µM
